# study.target: serotonin (5-HT) reuptake (Rattus norvegicus, UniProt P31652)
# Construct: synaptosomes are freshly isolated from areas of the rat brain; from tissue; host or cells: rat brain synaptosomes (P2 fraction)
# Sequence (P31652 whole entry): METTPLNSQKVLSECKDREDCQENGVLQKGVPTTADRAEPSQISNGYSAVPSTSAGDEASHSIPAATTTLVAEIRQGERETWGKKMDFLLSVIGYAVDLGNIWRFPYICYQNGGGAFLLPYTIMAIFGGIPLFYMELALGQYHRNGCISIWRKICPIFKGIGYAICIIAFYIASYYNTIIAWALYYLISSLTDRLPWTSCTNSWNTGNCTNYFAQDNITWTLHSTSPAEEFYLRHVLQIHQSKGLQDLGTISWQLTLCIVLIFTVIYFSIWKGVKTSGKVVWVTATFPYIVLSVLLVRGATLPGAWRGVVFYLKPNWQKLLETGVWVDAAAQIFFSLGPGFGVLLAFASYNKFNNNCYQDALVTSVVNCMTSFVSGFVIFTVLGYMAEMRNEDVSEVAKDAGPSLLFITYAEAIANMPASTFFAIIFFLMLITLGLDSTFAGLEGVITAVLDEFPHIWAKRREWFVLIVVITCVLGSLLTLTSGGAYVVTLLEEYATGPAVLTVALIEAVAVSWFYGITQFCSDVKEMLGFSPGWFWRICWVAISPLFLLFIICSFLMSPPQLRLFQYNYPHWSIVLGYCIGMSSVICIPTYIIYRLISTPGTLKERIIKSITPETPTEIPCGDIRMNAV
# experimental.protocol: Inhibition of serotonin (5HT) reuptake in synaptosomes from rat brain
# Type: biochemical
# conditions: test concentration of 10 μM; read-out: 5-HT (inhibition of reuptake of serotonin, % inhibition)
Assign inhibition at 10 µM to each entry below.
Give bare numbers, in %.

Below are worked cases with known answers.
CN(C)C(c1cccc(F)c1)C1CCC(CNC(=O)COCCN(C)S(=O)(=O)c2ccc(Cl)cc2Cl)CC1 (stereo not drawn) [Example 70]
86
COc1cc(C)c(S(=O)(=O)N2CCC(OCC(=O)NCC3CCC(C(c4ccccc4)N(C)C)CC3)C2)c(C)c1C (stereo not drawn) [Example 44]
94
CN(C)C(c1cccs1)C1CCC(CNC(=O)COC2CCN(S(=O)(=O)c3ccc(F)cc3)C2)CC1 (stereo not drawn) [Example 97]
91
CN(C)C(c1cccc(F)c1)C1CCC(NC(=O)COCCN(Cc2ccccc2)S(=O)(=O)c2ccccc2)CC1 (stereo not drawn) [Example 175]
97
COc1ccc(S(=O)(=O)N2CCCCC2COCC(=O)NCC2CCC(C(c3ccccc3)N(C)C)CC2)cc1OC (stereo not drawn) [Example 150]
94
COc1ccc(S(=O)(=O)N2CCCCC2CCOCC(=O)NC2CCC(C(c3cccc(F)c3)N(C)C)CC2)cc1 (stereo not drawn) [Example 62]
96
COc1cc(C)c(S(=O)(=O)N2CCN(CCOCC(=O)NC3CCC(C(c4cccc(F)c4)N(C)C)CC3)CC2)c(C)c1C (stereo not drawn) [Example 76]
96
CN(C)C(c1cccs1)C1CCC(CNC(=O)COC2CCCCC2N(C)S(=O)(=O)c2ccc(Cl)c(Cl)c2)CC1 (stereo not drawn) [Example 31]
88
COc1cc(C)c(S(=O)(=O)N2CCC(OCC(=O)NCC3CCC(C(c4cccs4)N(C)C)CC3)C2)c(C)c1C (stereo not drawn) [Example 58]
94
CN(C)C(c1ccccc1)C1CCC(CNC(=O)COCCN(C)S(=O)(=O)c2ccc(Cl)cc2)CC1 (stereo not drawn) [Example 110]
94

Batch: inhibition at 10 µM for all items listed.
1. COc1ccc(S(=O)(=O)N2Cc3ccccc3CC2COCC(=O)NCCC2CCC(C(c3cccs3)N(C)C)CC2)cc1 (stereo not drawn) [Example 48]
2. COc1cc(C)c(S(=O)(=O)N(CCOCC(=O)NCC2CCC(C(c3ccccc3)N(C)C)CC2)Cc2ccccc2)c(C)c1 (stereo not drawn) [Example 148]
3. CN(C)C(c1ccccc1)C1CCC(CNC(=O)COCCN(C)S(=O)(=O)c2ccc(F)cc2)CC1 (stereo not drawn) [Example 112]
4. CN(C)C(c1ccccc1)C1CCC(NC(=O)COCC2CCCCN2S(=O)(=O)c2cccc(Cl)c2Cl)CC1 (stereo not drawn) [Example 24]
5. CN(C)C(c1cccs1)C1CCC(CCNC(=O)COCCN(C)S(=O)(=O)c2ccc(Cl)cc2)CC1 (stereo not drawn) [Example 37]

A.
[101, 95, 85, 67, 90]

====

# study.target: serotonin (5-HT) reuptake (Rattus norvegicus)
# Construct: synaptosomes are freshly isolated from areas of the rat brain; from tissue; host or cells: rat brain synaptosomes (P2 fraction)
# experimental.protocol: Inhibition of serotonin (5HT) reuptake in synaptosomes from rat brain
# Assay type: biochemical
# conditions: test concentration of 10 μM; read-out: 5-HT (inhibition of reuptake of serotonin, % inhibition)
measured.property: inhibition at 10 µM (%)
Give bare numbers, in %.

Below are worked cases with known answers.
CN(C)C(c1cccs1)C1CCC(NC(=O)COCCN(C)S(=O)(=O)c2ccc(Cl)cc2)CC1 (stereo not shown) [Example 83]
89
COc1ccc(S(=O)(=O)N2CCCCC2COCC(=O)NCCC2CCC(C(c3cccs3)N(C)C)CC2)cc1 (stereo not shown) [Example 30]
98
CCN(CCOCC(=O)NCC1CCC(C(c2cccs2)N(C)C)CC1)S(=O)(=O)c1c(C)cc(OC)c(C)c1C (stereo not shown) [Example 16]
98
CN(C)C(c1cccc(F)c1)C1CCC(CNC(=O)COCC2CCCCN2S(=O)(=O)c2ccc(Cl)c(Cl)c2)CC1 (stereo not shown) [Example 87]
94
COc1cc(C)c(S(=O)(=O)N2CCC(OCC(=O)NCC3CCC(C(c4ccccc4)N(C)C)CC3)C2)c(C)c1 (stereo not shown) [Example 173]
95

Batch: inhibition at 10 µM for all items listed.
1. Cc1cc(C)c(S(=O)(=O)N2CCC(OCC(=O)NC3CCC(C(c4ccccc4)N(C)C)CC3)C2)c(C)c1 (stereo not shown) [Example 64]
2. COc1ccc(S(=O)(=O)N2CCCCC2CCOCC(=O)NC2CCC(C(c3cccs3)N(C)C)CC2)cc1 (stereo not shown) [Example 6]

A.
83
91
